Value source: patent US11466019B2

- Test Target: human adenosine A2A receptors (Homo sapiens, UniProt P29274)
- Construct: host or cells: HEK-293
- Sequence (P29274 whole entry): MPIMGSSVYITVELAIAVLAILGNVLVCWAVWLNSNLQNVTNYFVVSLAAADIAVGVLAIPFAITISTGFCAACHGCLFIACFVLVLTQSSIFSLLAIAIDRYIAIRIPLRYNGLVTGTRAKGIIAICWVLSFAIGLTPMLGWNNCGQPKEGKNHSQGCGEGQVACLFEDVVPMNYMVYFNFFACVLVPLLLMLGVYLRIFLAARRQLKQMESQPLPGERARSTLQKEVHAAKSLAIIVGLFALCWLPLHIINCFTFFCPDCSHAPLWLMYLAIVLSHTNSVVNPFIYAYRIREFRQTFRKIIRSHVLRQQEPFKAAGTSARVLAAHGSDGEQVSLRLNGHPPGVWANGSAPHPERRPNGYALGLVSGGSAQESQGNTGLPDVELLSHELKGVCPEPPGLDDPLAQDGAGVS
- Protocol Details: Adenosine receptor binding: binding affinities at hA2A receptors ([3H]CGS-21680 displacement)
- Measurement Conditions: Table 1; [3H]CGS-21680 displacement, HEK-293 membranes; read-out: Binding Affinity hA2A-Ki
pKi: −log10 of the molar value.
Measure: pKi

Would you please look over these solved cases?
Compound	Test Target	pKi
Cc1ccc(-c2nc(N)nc3c2nnn3Cc2cccc(COCC3CCOC3)n2)o1 (racemic)	human adenosine A2A receptors (Homo sapiens, UniProt P29274)	8.39
Cc1ccc(-c2nc(N)nc3c2nnn3Cc2cccc(COCC(F)(F)F)n2)o1	human adenosine A2A receptors (Homo sapiens, UniProt P29274)	8.36
COC(C)(C)OCc1cccc(Cn2nnc3c(-c4ccc(C)o4)nc(N)nc32)n1	human adenosine A2A receptors (Homo sapiens, UniProt P29274)	8.35

[1] Nc1nc(-c2ccccc2)c2nnn(Cc3cccc(C4(O)CCCC4)n3)c2n1
[2] CCOCCOCc1cccc(Cn2nnc3c(-c4ccc(C)o4)nc(N)nc32)n1
## Task // compare: 1 vs 2 , metric pKi, want the smaller Record your answer as the label of the chosen record.
## Result 1
(1: 8.01, 2: 8.34)

* * *

- Test Target: human adenosine A3 receptors (Homo sapiens)
- Construct: expressed in transfected cells; host or cells: CHO-K1
- Protocol Details: Adenosine receptor binding: binding affinities at hA3 receptors ([125I]-AB MECA displacement)
- Measurement Conditions: Table 2; ratio of Ki values
Measure: Binding Selectivity A3/A2a

Would you please look over these solved cases?
Compound	Binding Selectivity A3/A2a
Cl.Nc1nc(-c2ccco2)c2nnn(Cc3cccc(CO)n3)c2n1 [WO 02/055083 Example 213, reference compound]	625
COCc1cccc(Cn2nnc3c(-c4ccc(C)o4)nc(N)nc32)n1 [WO 02/055083 Example 183, reference compound]	519
Nc1cccc(Cn2nnc3c(-c4ccccc4)nc(N)nc32)c1 [WO 02/055083 Example 151, reference compound]	156

[P] CC(C)OCc1cccc(Cn2nnc3c(-c4ccco4)nc(N)nc32)n1 [WO 02/055083 Example 247, reference compound]
[Q] CC(C)COCc1cccc(Cn2nnc3c(-c4ccco4)nc(N)nc32)n1 [WO 02/055083 Example 217, reference compound]
## Task // compare: P vs Q , metric Binding Selectivity A3/A2a, want the smaller Record your answer as the label of the chosen record.
## Result Q

* * *

- Test Target: human adenosine A3 receptors (Homo sapiens)
- Construct: expressed in transfected cells; host or cells: CHO-K1
- Protocol Details: Adenosine receptor binding: binding affinities at hA3 receptors ([125I]-AB MECA displacement)
- Measurement Conditions: Table 1; ratio of Ki values
Measure: Binding Selectivity A3/A2a

Compound	Test Target	Test Value
CC(C)(O)c1cccc(Cn2nnc3c(-c4ccccc4)nc(N)nc32)n1	human adenosine A3 receptors (Homo sapiens)	780
Cc1ccc(-c2nc(N)nc3c2nnn3Cc2cccc(C3(O)CCOCC3)n2)o1	human adenosine A3 receptors (Homo sapiens)	1989
CCOCCOCc1cccc(Cn2nnc3c(-c4ccc(C)o4)nc(N)nc32)n1	human adenosine A3 receptors (Homo sapiens)	545

[1] Nc1nc(-c2ccccc2)c2nnn(Cc3cccc(C4(O)CCC4)n3)c2n1
[2] Cc1ccc(-c2nc(N)nc3c2nnn3Cc2cccc(C3(O)CCCC3)n2)o1
[3] COC(C)(C)OCc1cccc(Cn2nnc3c(-c4ccc(C)o4)nc(N)nc32)n1
## Task Sort the 3 compounds by Binding Selectivity A3/A2a; largest first, smallest last. Kindly provide the labels arranged according to the requested ordering.
## Result 1, 2, 3

[I] Cc1ccc(-c2nc(N)nc3c2nnn3Cc2cccc(C3(O)CCC3)n2)o1
[II] Cc1ccc(-c2nc(N)nc3c2nnn3Cc2cccc(COCC3CCCO3)n2)o1 (centres unmarked)
## Task Which value of Binding Selectivity A3/A2a is numerically greater: that of I or that of II ? Record your answer as the label of the chosen record.
## Result I

[I] Cc1ccc(-c2nc(N)nc3c2nnn3Cc2cccc(C3(O)CCCCC3)n2)o1
[II] COc1cccc(-c2nc(N)nc3c2nnn3Cc2cccc(C(C)(C)O)n2)c1
[III] COc1cccc(-c2nc(N)nc3c2nnn3Cc2cccc(C3(O)CCC3)n2)c1
## Task Sort the 3 compounds by Binding Selectivity A3/A2a; largest first, smallest last. Kindly provide the labels arranged according to the requested ordering.
## Result I, III, II
(I: 528, III: 196, II: 102)

* * *

- Test Target: human adenosine A3 receptors (Homo sapiens, UniProt P0DMS8)
- Construct: expressed in transfected cells; host or cells: CHO-K1
- Sequence (P0DMS8 whole entry): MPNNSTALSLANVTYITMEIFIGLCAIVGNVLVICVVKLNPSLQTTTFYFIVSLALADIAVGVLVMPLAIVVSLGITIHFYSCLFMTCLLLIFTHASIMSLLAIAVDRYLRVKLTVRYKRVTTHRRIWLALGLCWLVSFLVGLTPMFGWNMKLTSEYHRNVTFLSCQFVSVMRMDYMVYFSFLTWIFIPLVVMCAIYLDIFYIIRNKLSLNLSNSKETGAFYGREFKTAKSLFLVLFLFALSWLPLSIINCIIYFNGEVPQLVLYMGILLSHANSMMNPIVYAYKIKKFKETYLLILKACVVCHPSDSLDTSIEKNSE
- Protocol Details: Adenosine receptor binding: binding affinities at hA3 receptors ([125I]-AB MECA displacement)
- Measurement Conditions: Table 2; comparative compounds of WO 02/055083; read-out: Binding Affinity hA3-Ki
pKi: −log10 of the molar value.
Measure: pKi

Compound	Test Value
CC(C)OCc1cccc(Cn2nnc3c(-c4ccco4)nc(N)nc32)n1 [WO 02/055083 Example 247, reference compound]	5.84

[P] Nc1cccc(Cn2nnc3c(-c4ccccc4)nc(N)nc32)c1 [WO 02/055083 Example 151, reference compound]
[Q] Cl.Nc1nc(-c2ccco2)c2nnn(Cc3cccc(CO)n3)c2n1 [WO 02/055083 Example 213, hydrochloride, reference compound]
## Task Which value of pKi is numerically greater: that of P or that of Q ? Record your answer as the label of the chosen record.
## Result P

* * *

- Test Target: hA2B receptors (Homo sapiens, UniProt P29275)
- Construct: host or cells: HEK-293
- Sequence (P29275 whole entry): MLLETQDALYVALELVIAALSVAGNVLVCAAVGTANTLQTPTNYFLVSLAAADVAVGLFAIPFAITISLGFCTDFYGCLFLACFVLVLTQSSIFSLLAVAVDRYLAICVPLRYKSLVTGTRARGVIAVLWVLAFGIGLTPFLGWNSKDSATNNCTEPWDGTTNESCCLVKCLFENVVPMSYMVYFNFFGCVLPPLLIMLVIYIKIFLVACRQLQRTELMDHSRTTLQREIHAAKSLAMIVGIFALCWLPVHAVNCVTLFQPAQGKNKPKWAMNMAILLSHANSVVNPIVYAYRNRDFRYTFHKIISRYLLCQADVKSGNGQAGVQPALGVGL
- Protocol Details: Adenosine receptor binding: binding affinities at hA2B receptors ([3H]-ZM241385 displacement)
- Measurement Conditions: Table 1; [3H]-ZM241385 displacement, HEK-293 membranes; read-out: Binding Affinity hA2B-Ki
Measure: Ki (nM)

Would you please look over these solved cases?
Molecule	Test Value
Cc1ccc(-c2nc(N)nc3c2nnn3Cc2cccc(C(C)(C)O)n2)o1 [Example 2]	2190
N#Cc1cccc(-c2nc(N)nc3c2nnn3Cc2cccc(C3(O)CCCC3)n2)c1 [Example 21]	2050

[P] COc1cccc(-c2nc(N)nc3c2nnn3Cc2cccc(C3(O)CCC3)n2)c1 [Example 17]
[Q] Cc1ccc(-c2nc(N)nc3c2nnn3Cc2cccc(C3(O)CCC3)n2)o1 [Example 6]
[R] COc1cccc(-c2nc(N)nc3c2nnn3Cc2cccc(C(C)(C)O)n2)c1 [Example 14]
[S] Nc1nc(-c2nccs2)c2nnn(Cc3cccc(CO[C@H]4CCOC4)n3)c2n1 [Example 38]
## Task List by increasing Ki. Kindly provide the labels arranged according to the requested ordering.
## Result R, Q, S, P
(R: 437 nM, Q: 1370 nM, S: 2980 nM, P: 4690 nM)

* * *

- Test Target: hA2B receptors (Homo sapiens, UniProt P29275)
- Construct: host or cells: HEK-293
- Protocol Details: Adenosine receptor binding: binding affinities at hA2B receptors ([3H]-ZM241385 displacement)
- Measurement Conditions: Table 1; ratio of Ki values
Measure: Binding Selectivity A2b/A2a

Would you please look over these solved cases?
Compound	Test Target	Measure	Test Value
Cc1ccc(-c2nc(N)nc3c2nnn3Cc2cccc(COCC(F)(F)F)n2)o1 [Example 37]	hA2B receptors (Homo sapiens, UniProt P29275)	Binding Selectivity A2b/A2a	536
COCc1cccc(Cn2nnc3c(-c4nc(C)cs4)nc(N)nc32)n1 [Example 30]	hA2B receptors (Homo sapiens, UniProt P29275)	Binding Selectivity A2b/A2a	498
Cc1ccc(-c2nc(N)nc3c2nnn3Cc2cccc(C3(O)CCCC3)n2)o1 [Example 3]	hA2B receptors (Homo sapiens, UniProt P29275)	Binding Selectivity A2b/A2a	602

[a] Cc1ccc(-c2nc(N)nc3c2nnn3Cc2cccc(COCC3CCOC3)n2)o1 (racemic) [Example 34]
[b] COc1cccc(-c2nc(N)nc3c2nnn3Cc2cccc(C(C)(C)O)n2)c1 [Example 14]
## Task Which value of Binding Selectivity A2b/A2a is numerically greater: that of a or that of b ? Record your answer as the label of the chosen record.
## Result a

[a] Nc1nc(-c2ccccc2)c2nnn(Cc3cccc(C4(O)CCC4)n3)c2n1 [Example 11]
[b] CC(C)(O)c1cccc(Cn2nnc3c(-c4ccccc4)nc(N)nc32)n1 [Example 8]
[c] Nc1nc(-c2ccccc2)c2nnn(Cc3cccc(CO[C@H]4CCOC4)n3)c2n1 [Example 7]
[d] CCOCCOCc1cccc(Cn2nnc3c(-c4ccc(C)o4)nc(N)nc32)n1 [Example 32]
## Task Sort the 4 compounds by Binding Selectivity A2b/A2a; largest first, smallest last. Kindly provide the labels arranged according to the requested ordering.
## Result a, d, b, c
(a: 634, d: 442, b: 269, c: 93)

[a] Cc1ccc(-c2nc(N)nc3c2nnn3Cc2cccc(COCC3CCCO3)n2)o1 (stereo not drawn) [Example 33]
[b] Cc1ccc(-c2nc(N)nc3c2nnn3Cc2cccc(C(C)(C)O)n2)o1 [Example 2]
[c] N#Cc1cccc(-c2nc(N)nc3c2nnn3Cc2cccc(C3(O)CCC3)n2)c1 [Example 23]
## Task Sort the 3 compounds by Binding Selectivity A2b/A2a; largest first, smallest last. Kindly provide the labels arranged according to the requested ordering.
## Result b, c, a
(b: 1165, c: 462, a: 274)

[I] Cc1ccc(-c2nc(N)nc3c2nnn3Cc2cccc(C3(O)CCOCC3)n2)o1 [Example 5]
[II] Nc1nc(-c2ccccc2)c2nnn(Cc3cccc(C4(O)CCCC4)n3)c2n1 [Example 9]
## Task // compare: I vs II , metric Binding Selectivity A2b/A2a, want the smaller Record your answer as the label of the chosen record.
## Result II
